- targetDesc: Adenosine receptors; A2b & A3 (Homo sapiens) (UniProt P29275+P0DMS8)
- protocolNotes: Relative binding affinity for human adenosine A2b and A3 receptors
- Type: protein assay
measurementLabel: Selectivity

These recorded examples may help you get a feel for the data.
[[record]]
compound = "CCCn1c(=O)c2c(nc3[nH]c(CC)cn32)n(Cc2ccccc2)c1=O"
valuereported = "> 67"

[[record]]
compound = "CCCn1c(=O)c2c(nc3[nH]c(C(C)C)cn32)n(Cc2ccccc2)c1=O"
valuereported = "> 32"

[[record]]
compound = "CCCn1c(=O)c2c(nc3[nH]c(C(C)(C)C)cn32)n(Cc2ccccc2)c1=O"
valuereported = "> 10"


Consider the following items and state reported Selectivity for each.
1. CCCn1c(=O)c2c(nc3n2C(C)C(C)=C3)n(Cc2ccccc2)c1=O (stereo not drawn)
2. CCCn1c(=O)c2c(nc3[nH]c(C)c(C)n32)n(Cc2ccccc2)c1=O
3. CCCn1c(=O)c2c(nc3n2CC(C)=C3)n(Cc2ccccc2)c1=O
4. CCCn1c(=O)c2c(nc3[nH]c(CC)c(C)n32)n(Cc2ccccc2)c1=O
5. CCCn1c(=O)c2c(nc3[nH]c(C4CC4)cn32)n(Cc2ccccc2)c1=O

Completion:
1. > 13
2. > 28
3. 50
4. > 17
5. > 44
